- TEST_DETAILS: Pharmacokinetic drug interaction study, sitaxsentan and sildenafil
- Type: in vivo, human
- TEST_PARAMETERS: human, plasma, po, 100 mg, single 100 mg oral sildenafil after 100 mg sitaxsentan daily for seven days; healthy subjects; mean ± SD; read-out: Cmax
Structures can show the parent of a compound that is named as a salt.
EXPERIMENTAL_READOUT: Cmax

The reported Cmax of the compound CCCc1nn(C)c2c(=O)[nH]c(-c3cc(S(=O)(=O)N4CCN(C)CC4)ccc3OCC)nc12 [Sildenafil, citrate] was 440 ng/mL

----------
- TEST_DETAILS: Pharmacokinetic drug interaction study, sitaxsentan and sildenafil
- Format: in vivo, human
- TEST_PARAMETERS: human, plasma, po, 100 mg, single 100 mg oral sildenafil after placebo daily for seven days; median; read-out: Tmax
Counter-ions that a name gives are not always drawn.
EXPERIMENTAL_READOUT: Tmax (h)
Only the number, expressed in h, is required.

Record CCCc1nn(C)c2c(=O)[nH]c(-c3cc(S(=O)(=O)N4CCN(C)CC4)ccc3OCC)nc12 [Sildenafil, citrate] . Reported Tmax: 1

----------
- TEST_DETAILS: Pharmacokinetic drug interaction study, sitaxsentan and sildenafil
- Assay type: in vivo, human
- TEST_PARAMETERS: human, plasma, po, 100 mg, single 100 mg oral sildenafil after 100 mg sitaxsentan daily for seven days; mean ± SD; read-out: Vz/F
Counter-ions that a name gives are not always drawn.
EXPERIMENTAL_READOUT: Vd/F (L)
Give the value, in units of L, as a plain number.

Note to self: Vd/F recorded for CCCc1nn(C)c2c(=O)[nH]c(-c3cc(S(=O)(=O)N4CCN(C)CC4)ccc3OCC)nc12 [Sildenafil, citrate] was 34.8

----------
- TEST_DETAILS: Pharmacokinetic drug interaction study, sitaxsentan and sildenafil
- Assay type: in vivo, human
- TEST_PARAMETERS: human, plasma, po, 100 mg, single 100 mg oral sildenafil after 100 mg sitaxsentan daily for seven days; mean ± SD; read-out: t½ (converted)
- Protocol: A pharmacokinetic drug interaction study was performed using 24 individuals. In the study, a group of 24 normal, healthy volunteers participated in two treatment periods. […] Samples were drawn (in duplicate) once on days 1, 3, 5 and 6; 15 times on day 7 and once again on day 8 for each treatment period. […] All samples were analyzed with a set of calibration standards and low, medium and high concentration Quality Control samples.
Structures can show the parent of a compound that is named as a salt.
EXPERIMENTAL_READOUT: half-life (min)
Field: numeric (min). Do not append units.

half-life for CCCc1nn(C)c2c(=O)[nH]c(-c3cc(S(=O)(=O)N4CCN(C)CC4)ccc3OCC)nc12 [Sildenafil, citrate] is 169
